Where do these numbers come from? They come from ChEMBL document CHEMBL1125156.

Readings of K obs / 1 for the listed compounds
# TESTED ON: Neutrophil elastase (Homo sapiens)
# PROCEDURE DETAILS: Evaluated for the inhibition of Human leukocyte elastase
Your answer should be a number followed by the unit of measure.

- COMPOUND: "CCCC1CC(=O)N(OS(C)(=O)=O)C1=O (centres undefined)"
  K obs / 1: "8600 M⁻¹ s⁻¹"

# query: K obs / 1 | item CS(=O)(=O)ON1C(=O)CC(Cc2ccccc2)C1=O (centres undefined) | system: Neutrophil elastase (Homo sapiens)
1100 M⁻¹ s⁻¹

Please answer likewise for CC(C)C1CC(=O)N(OS(=O)(=O)/C=C/c2ccccc2)C1=O (centres undefined)
100000 M⁻¹ s⁻¹

Please answer likewise for CCCCC1CC(=O)N(OS(C)(=O)=O)C1=O (centres undefined)
4100 M⁻¹ s⁻¹
